- Measured target: CEF (Capping Enzyme of Flavivirus) (Dengue virus type 2)
- Construct: is a thirty-three kDa N-terminal domain of the RNA-dependent RNA polymerase; made in house; host or cells: E. coli (vector pQE30)
- Assay overview: UV-crosslinking of α-32P-GTP (or α-32P-ATP) to CEF, direct binding
- Parameters: species or system Dengue virus type 2 (New Guinea)
- Experimental context: fixed CEF, increasing radiolabeled GTP, hyperbolic saturation; read-out: binding affinity constant Kd of GTP to CEF
Metric: Kd (µM)
// units = µM; emit number, no label

What value of measured Kd is listed for Nc1nc2c(ncn2[C@@H]2O[C@H](COP(=O)(O)OP(=O)(O)OP(=O)(O)O)[C@@H](O)[C@H]2O)c(=O)[nH]1 [GTP] ? 52

Reference source for all entries: patent US6949353B2
